species: Rattus norvegicus; assay: Open TG-GATES - Regimen: Daily Repeat; type: toxicity, organism-based, Sprague-Dawley; design: regimen Daily Repeat, gender Male, age 6 weeks; conditions: in vivo, po, 100 mg/kg, […], tissue Plasma, route gavage, dose level Low, time 14 day
compounds and their reported ALP
Give a bare numeral; the unit IU/L is implied.

Solved entries (count: 4):
COC1=CC(=O)C[C@@H](C)[C@]12Oc1c(Cl)c(OC)cc(OC)c1C2=O [GRISEOFULVIN]: 701.8
NC(N)=Nc1nc(CSCCC(N)=NS(N)(=O)=O)cs1 [FAMOTIDINE]: 918.4
CCOc1ccc(NC(=O)CC(C)O)cc1 (stereo not given) [BUCETIN]: 1590.2
CCOC(=O)CCC(=O)O[C@H]1[C@H](O[C@@H]2[C@@H](C)[C@H](O[C@H]3C[C@@](C)(OC)[C@@H](O)[C@H](C)O3)[C@@H](C)C(=O)O[C@H](CC)[C@@](C)(O)[C@H](O)[C@@H](C)C(=O)[C@H](C)C[C@@]2(C)O)O[C@H](C)C[C@@H]1N(C)C [ERYTHROMYCIN ETHYLSUCCINATE]: 1442.8

Now for another entry.
ALP for COc1ccc2[nH]c([S+]([O-])Cc3ncc(C)c(OC)c3C)nc2c1 (stereo not given) [OMEPRAZOLE] ? 771.6

----------
species: Rattus norvegicus; assay: Open TG-GATES - Regimen: Daily Repeat; format: toxicity, organism-based, Sprague-Dawley; design: regimen Daily Repeat, gender Male, age 6 weeks; details: in vivo, po, 1000 mg/kg, […], tissue Plasma, route gavage, dose level High, time 14 day
Experimental Readout: TC (mg/dL)
Answer format: numeric, mg/dL implied, no suffix.

CCOc1ccc(NC(=O)CC(C)O)cc1 (stereo not drawn): 71.6
COc1ccc2[nH]c([S+]([O-])Cc3ncc(C)c(OC)c3C)nc2c1 (stereo not drawn): 120.8

Next:
Which measured TC value corresponds to "NC(N)=Nc1nc(CSCCC(N)=NS(N)(=O)=O)cs1" ? 72.4

----------
organism: Rattus norvegicus; test: Open TG-GATES - Regimen: Single; type: toxicity, organism-based, Sprague-Dawley; parameters: regimen Single, gender Male, age 6 weeks; conditions: in vivo, po, 30 mg/kg, 6 h, tissue Blood, route gavage, dose level Middle
Some compounds, each annotated with its measured Bas.
Hi! Could you send only the number? It should be in %, unit omitted.

CN(C)CCCN1c2ccccc2CCc2ccccc21: 0

Bas for "CC1=C(/C=C/C(C)=C/C=C/C(C)=C/CO)C(C)(C)CCC1" ? 0

For the compound "CN(C)CCCN1c2ccccc2CCc2ccc(Cl)cc21" , what Bas is on record? 0.2

Item under review: "CN(C)CCN(Cc1cccs1)c1ccccn1" . Reported Bas? 0

----------
// reported TERMINAL_BW for each item listed
organism: Rattus norvegicus; assay: Open TG-GATES - Regimen: Single; format: toxicity, organism-based, Sprague-Dawley; parameters: regimen Single, gender Male, age 6 weeks; settings: in vivo, po, 100 mg/kg, 9 h, route gavage, dose level High
Dear colleague, please return just the value in g, with no unit written.

A selection of reference data follows.
CC1=C(/C=C/C(C)=C/C=C/C(C)=C/CO)C(C)(C)CCC1: 198.4
CN(C)CCCN1c2ccccc2CCc2ccc(Cl)cc21: 208.4
CN(C)CCN(Cc1cccs1)c1ccccn1: 183.7

# evaluate next
Value lookup for TERMINAL_BW; key = "CN(C)CCCN1c2ccccc2CCc2ccccc21" 199.8

----------
species on record: Rattus norvegicus; test: Open TG-GATES - Regimen: Daily Repeat; type: toxicity, organism-based, Sprague-Dawley; parameters: regimen Daily Repeat, gender Male, age 6 weeks; conditions: in vivo, po, 0 mg/kg, […], tissue Plasma, route gavage, dose level Control, time 28 day
List of Ca values.
Numeric answer only, unit mg/dL assumed.

NNC(=O)c1ccncc1: 10
COC1=CC(=O)C[C@@H](C)[C@]12Oc1c(Cl)c(OC)cc(OC)c1C2=O: 10.5
CCOc1ccc(NC(=O)CC(C)O)cc1 (stereo not given): 11

Below: the item to evaluate.
Which value of Ca has been reported for "O=C(CCCN1CCC(O)(c2ccc(Cl)cc2)CC1)c1ccc(F)cc1" in the records? 11.1

----------
species on record: Rattus norvegicus; assay: Open TG-GATES - Regimen: Single; assay type: toxicity, organism-based, Sprague-Dawley; design: regimen Single, gender Male, age 6 weeks; conditions: in vivo, po, 1000 mg/kg, 9 h, tissue Plasma, route gavage, dose level High
If the reported TC equals or exceeds 70 mg/dL, assign 1 (yes). If not, assign 0 (no).

Some solved entries appear below for comparison.
CC(C)OC(=O)C(C)(C)Oc1ccc(C(=O)c2ccc(Cl)cc2)cc1 [FENOFIBRATE]: 0 (no)
NC(N)=Nc1nc(CSCCC(N)=NS(N)(=O)=O)cs1: 1 (yes)
COc1ccc2[nH]c([S+]([O-])Cc3ncc(C)c(OC)c3C)nc2c1 (stereo not given): 1 (yes)

Moving on to another compound below.
Please tell me: is the compound "COC1=CC(=O)C[C@@H](C)[C@]12Oc1c(Cl)c(OC)cc(OC)c1C2=O" at or over 70 mg/dL in terms of TC? 1 (yes)

----------
Entries annotated with measured APTT
species on record: Rattus norvegicus; test: Open TG-GATES - Regimen: Daily Repeat; assay type: toxicity, organism-based, Sprague-Dawley; set-up: regimen Daily Repeat, gender Male, age 6 weeks; conditions: in vivo, po, 100 mg/kg, […], tissue Blood, route gavage, dose level Low, time 28 day

CCOC(=O)CCC(=O)O[C@H]1[C@H](O[C@@H]2[C@@H](C)[C@H](O[C@H]3C[C@@](C)(OC)[C@@H](O)[C@H](C)O3)[C@@H](C)C(=O)O[C@H](CC)[C@@](C)(O)[C@H](O)[C@@H](C)C(=O)[C@H](C)C[C@@]2(C)O)O[C@H](C)C[C@@H]1N(C)C [ERYTHROMYCIN ETHYLSUCCINATE]: 23.6 s

Query: APTT; subject: CCOc1ccc(NC(=O)CC(C)O)cc1 (stereo not given) [BUCETIN] 17.9 s

Fill in the blank: the reported APTT of NC(N)=Nc1nc(CSCCC(N)=NS(N)(=O)=O)cs1 [FAMOTIDINE] is ____. 21.5 s

Form field: reported APTT of COc1ccc2[nH]c([S+]([O-])Cc3ncc(C)c(OC)c3C)nc2c1 (stereo not given) [OMEPRAZOLE] 21.2 s

Which APTT is listed for COC1=CC(=O)C[C@@H](C)[C@]12Oc1c(Cl)c(OC)cc(OC)c1C2=O [GRISEOFULVIN] ? 21.2 s

----------
organism: Rattus norvegicus; test: Open TG-GATES - Regimen: Single; type: toxicity, organism-based, Sprague-Dawley; design: regimen Single, gender Male, age 6 weeks; conditions: in vivo, po, 100 mg/kg, 24 h, tissue Blood, route gavage, dose level Low
Experimental Readout: MCHC (%)
Lab book: enter the figure in %, no units written.

Example entries begin here.
NC(N)=Nc1nc(CSCCC(N)=NS(N)(=O)=O)cs1 [FAMOTIDINE]: 35.8
CCOC(=O)CCC(=O)O[C@H]1[C@H](O[C@@H]2[C@@H](C)[C@H](O[C@H]3C[C@@](C)(OC)[C@@H](O)[C@H](C)O3)[C@@H](C)C(=O)O[C@H](CC)[C@@](C)(O)[C@H](O)[C@@H](C)C(=O)[C@H](C)C[C@@]2(C)O)O[C@H](C)C[C@@H]1N(C)C [ERYTHROMYCIN ETHYLSUCCINATE]: 33.2
COc1ccc2[nH]c([S+]([O-])Cc3ncc(C)c(OC)c3C)nc2c1 (centres undefined) [OMEPRAZOLE]: 34

Please find the next compound below.
# input compound: COC1=CC(=O)C[C@@H](C)[C@]12Oc1c(Cl)c(OC)cc(OC)c1C2=O [GRISEOFULVIN] ; wanted: its MCHC 33.1

----------
Fbg values, listed per item
organism: Rattus norvegicus; assay: Open TG-GATES - Regimen: Single; format: toxicity, organism-based, Sprague-Dawley; design: regimen Single, gender Male, age 6 weeks; conditions: in vivo, po, 1000 mg/kg, 6 h, tissue Blood, route gavage, dose level High
Note: unit mg/dL is implicit; provide only the numeric part.

Recorded results for 4 molecules are shown here.
CC(C)OC(=O)C(C)(C)Oc1ccc(C(=O)c2ccc(Cl)cc2)cc1 [FENOFIBRATE]: 253.6
NC(N)=Nc1nc(CSCCC(N)=NS(N)(=O)=O)cs1: 217.8
COc1ccc2[nH]c([S+]([O-])Cc3ncc(C)c(OC)c3C)nc2c1 (stereo not given): 208.8
COC1=CC(=O)C[C@@H](C)[C@]12Oc1c(Cl)c(OC)cc(OC)c1C2=O: 211.2

For the next question, use this molecule.
Requested field: Fbg. Item: CCOC(=O)CCC(=O)O[C@H]1[C@H](O[C@@H]2[C@@H](C)[C@H](O[C@H]3C[C@@](C)(OC)[C@@H](O)[C@H](C)O3)[C@@H](C)C(=O)O[C@H](CC)[C@@](C)(O)[C@H](O)[C@@H](C)C(=O)[C@H](C)C[C@@]2(C)O)O[C@H](C)C[C@@H]1N(C)C [ERYTHROMYCIN ETHYLSUCCINATE] 315
